The measurements presented in this section are drawn from patent US20230035798A1.

- experimental-system: membrane LIGHT without residues 81-84 (EL4-NC-LIGHT cells) (human, UniProt O43557 1-240)
- Sequence (O43557 other isoform, or with tags, fused parts or gaps): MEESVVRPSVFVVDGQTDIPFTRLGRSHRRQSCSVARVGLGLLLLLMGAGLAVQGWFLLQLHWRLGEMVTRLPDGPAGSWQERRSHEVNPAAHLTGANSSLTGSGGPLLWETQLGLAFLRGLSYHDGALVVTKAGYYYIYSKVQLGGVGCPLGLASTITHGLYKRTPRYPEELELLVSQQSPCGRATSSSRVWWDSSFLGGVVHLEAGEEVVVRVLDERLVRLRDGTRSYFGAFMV
- assay-comment: cell-based or functional assay
property-measured: IC50, inhibition of IL-8 secretion from HT-29 cells (EL4-NC-LIGHT cells)
Put down the number, then write its unit next to it.

Record excerpt, results attached:
3A07 (antibody, human IgG4, V domains shown, chimeric human IgG4 (S-to-P, L-to-E at 248), human CL; also called Parental 3A07) VH: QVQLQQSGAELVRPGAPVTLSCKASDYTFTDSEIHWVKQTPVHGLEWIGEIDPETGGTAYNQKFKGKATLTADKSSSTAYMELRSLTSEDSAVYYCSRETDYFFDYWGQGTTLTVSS VL: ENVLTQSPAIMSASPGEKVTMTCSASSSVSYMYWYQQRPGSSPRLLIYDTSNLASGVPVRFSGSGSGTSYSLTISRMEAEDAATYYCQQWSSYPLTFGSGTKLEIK    2 nM
3B04 (antibody, human IgG4, V domains shown, chimeric: mouse variable domains on human IgG4 HC (S-to-P and L-to-E at 248) and human CL; also called Parental 3B04; 3B04 chimeric) VH: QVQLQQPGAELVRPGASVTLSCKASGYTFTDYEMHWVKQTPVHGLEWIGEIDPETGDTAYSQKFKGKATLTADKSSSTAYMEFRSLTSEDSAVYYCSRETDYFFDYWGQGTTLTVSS VL: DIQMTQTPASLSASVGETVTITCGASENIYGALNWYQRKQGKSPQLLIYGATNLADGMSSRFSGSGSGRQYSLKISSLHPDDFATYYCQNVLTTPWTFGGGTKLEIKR    0.2 nM
3C10 (antibody, human IgG4, V domains shown, chimeric human IgG4 (S-to-P, L-to-E at 248), human CL; also called Parental 3C10) VH: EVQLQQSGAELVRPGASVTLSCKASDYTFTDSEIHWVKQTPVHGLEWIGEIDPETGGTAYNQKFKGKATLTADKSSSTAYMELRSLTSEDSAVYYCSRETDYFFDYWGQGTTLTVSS VL: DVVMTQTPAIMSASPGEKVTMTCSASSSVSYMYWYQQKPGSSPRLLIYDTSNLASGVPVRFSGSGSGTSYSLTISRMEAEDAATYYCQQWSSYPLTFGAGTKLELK    1.9 nM

Alright, here's another binder for you.
Query :: Fill in the blank: the reported IC50, inhibition of IL-8 secretion from HT-29 cells (EL4-NC-LIGHT cells) of 2B11 (antibody, human IgG4, V domains shown, chimeric human IgG4 (S-to-P, L-to-E at 248), human CL; also called Parental 2B11) VH: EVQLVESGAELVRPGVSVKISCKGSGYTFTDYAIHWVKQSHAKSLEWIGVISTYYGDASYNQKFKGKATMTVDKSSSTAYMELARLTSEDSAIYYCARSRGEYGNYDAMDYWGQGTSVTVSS VL: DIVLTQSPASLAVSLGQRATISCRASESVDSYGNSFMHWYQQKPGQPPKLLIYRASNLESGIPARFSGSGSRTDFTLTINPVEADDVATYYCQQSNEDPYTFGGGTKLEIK is ____.
Result :: 0.6 nM
